- measurement.description: Confirmatory fluorescence-based thiol-reactive (MSTI) qHTS assay for identification of artifact compounds
- condition.info: MSTI thiol-reactivity probe, 1 h; series mostly up to 39.2 µM
Records with an inconclusive call do not appear. Active and inactive are the calls of the source. Calls come from the whole dose curve; as a rule, active = well fitted inhibition curve with a large enough effect; inconclusive = small, poorly fitted or top-dose-only effect; inactive = no such curve, though single readings can be large or run the other way.
API: response.call in active, inactive

>>> assigned_category("CCCCCCCCCCCCCCCC(=O)N[C@H](CN1CCOCC1)[C@H](O)c1ccccc1")
"active"
>>> assigned_category("CC/C=C/C/C=C/C/C=C/CCCCCCCC(=O)OCC")
"inactive"
>>> assigned_category("COc1ccc([C@H]2C[C@H](O)[C@@H](n3cc(C4CC4)nn3)CN2C(=O)c2cccs2)cc1")
"inactive"
>>> assigned_category("COc1ccc(Nc2nc(Nc3ccc(OC)cc3OC)nc(N3CCOCC3)n2)c(OC)c1")
"active"
>>> assigned_category("COc1ccccc1N1CCN(c2ncnc3c2cnn3-c2ccc(C)cc2)CC1")
"inactive"

**Q:** # lookup: test call for `Cc1c(O)cc(O)c2c(=O)c(-c3ccc(O)cc3)coc12`
**A:** inactive

**Q:** Any idea what this test logged for `Cc1ccc(Cn2cc(CCC(=O)NC3CCCCC3)c3ccccc32)cc1` ?
**A:** inactive

**Q:** Returns: the outcome recorded for `COc1ccc(NC(=O)c2ccco2)cc1NC(=O)c1ccccc1[N+](=O)[O-]` in this assay.
**A:** inactive
